Test system: MS2 coat protein
TEST PROTOCOL: apparent KD of MS2 coat protein; designed switch direction (-1 OFF switch, 1 ON switch): -1; higher = weaker reporter binding
DETAILS: Eterna round: R95; input ligand: microRNA oligo, concentration not stated
ASSAY ENDPOINT: apparent KD of MS2 coat protein (nM)
Enter your answer as a number in nM; do not include the unit.

Qu. Kindly state the measured apparent KD of MS2 coat protein obtained for AAGAAACAUGAGGAUCACCCAUGUGAGGAUAUGAGCAAGAAAAGAAAAGAAAGAAGAUUCAGAAGGCACAAAGG [salish99-ex1_r3_059] (puzzle: Exclusion 1) with MS2 coat protein.
Ans. 39.4

Qu. Kindly state the measured apparent KD of MS2 coat protein obtained for UCAUGUUUAGAGGAUAUGAUUACUUUUGAGUAAUCAGAAGGCUAGACAUGAGGAUCACCCAUGUCAUAACAUGA [Exclusion 6 - B - 15:d] (puzzle: Exclusion 6) with MS2 coat protein.
Ans. 71.5

Qu. Kindly state the measured apparent KD of MS2 coat protein obtained for AGUACUAUGCGAGCUGACUUGCGUAGUGCAGCAAGUGAAACAUGAGGAUCACCCAUGUCCUCAUUUGCUCGUCUUAU [Mat - Sensor v3 - Turn-off var 2 - D1] (puzzle: Sensor v3, turn-off variant 2) with MS2 coat protein.
Ans. 453

Qu. Kindly state the measured apparent KD of MS2 coat protein obtained for AGUGCGUAUGUGAGGAUAUGCUGGUCCUUGGAUCAGCAGAAGGCACAUGAGGAUCACCCAUGUGGUGUCGUACC [salish99_Bmod_Ex4_003] (puzzle: Brourd's mod of Exclusion 4) with MS2 coat protein.
Ans. 180

Qu. Kindly state the measured apparent KD of MS2 coat protein obtained for UUUCUCGUUGUGAGGAUAUCGUUUUUGUCUCGGAUCGAGAAGGCACAUGAGGAUCACCCAUGUUUGUUGUGGUU [JR_BMOE4_Sub089] (puzzle: Brourd's mod of Exclusion 4) with MS2 coat protein.
Ans. 74.9

Qu. Kindly state the measured apparent KD of MS2 coat protein obtained for AUUUAGAGAGGAUAUAUAUUUUAAAACAUGAGGAUCACCCAUGUAAUUUUAUGGGAGUAAAUAGAAGGCUCAUUUA [JMFs Solution 2] (puzzle: Exclusion 5) with MS2 coat protein.
Ans. 52.8

Qu. Kindly state the measured apparent KD of MS2 coat protein obtained for GAUUAUGCGAGCUUUAGGGACAUGAGGAUCACCCAUGUUCGUCUUAUUAAUCUAGGUGCGCUAACAUACCUAAAUCU [JMF 47] (puzzle: Sensor v3, turn-off variant 1) with MS2 coat protein.
Ans. 32

Qu. Kindly state the measured apparent KD of MS2 coat protein obtained for GCCGAUUAAGUCAGGAUAUACCUAUGGAUACAUAGGUAGAAGGGACAUGAGGAUCACCCAUGUUCCUCUACGGC [Fiskers BMX 4 - 16] (puzzle: Brourd's mod of Exclusion 4) with MS2 coat protein.
Ans. 13.6

Qu. Kindly state the measured apparent KD of MS2 coat protein obtained for AAGAAUGAAGGAUAUACAUGAGGAUCACCCAUGUAAAAAAAAUUUUUUAGUUUUUCAUGUAGAAGGUCAAGAAG [JR_Exclusion3_Sub001] (puzzle: Exclusion 3) with MS2 coat protein.
Ans. 41.8

Qu. Kindly state the measured apparent KD of MS2 coat protein obtained for AAGUACCGUCACGAUAGUGAUGGUACAACAAGCAAAUACACAUGAGGAUCACCCAUGUCCUCUUUUGCUCGUCUUGU [Sensor 3 - 0] (puzzle: Sensor v3, turn-off variant 2) with MS2 coat protein.
Ans. 236

Qu. Kindly state the measured apparent KD of MS2 coat protein obtained for GCUUGGCGAGGAUAUACAUGAGGAUCACCCAUGUGAGAGAAGAAAGUGAGGAAGAAAAGUAGAAGGCGCUGAGG [Mat - Exclusion 3 - Mod of Salish D61] (puzzle: Exclusion 3) with MS2 coat protein.
Ans. 56.4

Qu. Kindly state the measured apparent KD of MS2 coat protein obtained for GAAGAGACAGGAUAUACAUGAGGAUCACCCAUGUGAGGAGGUUGGAGGCGGAGGAGGUGUAGAAGGGUCAAAGA [JR_Exclu3_Sub021] (puzzle: Exclusion 3) with MS2 coat protein.
Ans. 29.7

Qu. Kindly state the measured apparent KD of MS2 coat protein obtained for AGUACUCACACGAAAGUGUUAGUACAAUAAGCUUGUGAAACAUGAGGAUCACCCAUGUCCUCAUAAGCUCGUCUUAU [salish99_TOv2_r3_018] (puzzle: Sensor v3, turn-off variant 2) with MS2 coat protein.
Ans. 1380

Qu. Kindly state the measured apparent KD of MS2 coat protein obtained for AGAUGUAGAUACCGAUCCUACAUGAGGAUCACCCAUGUAGCUAGACGUGCUCGCGUAGCUCGUCAGACUACCAGUAG [salish99_TOv1_r3_087] (puzzle: Sensor v3, turn-off variant 1) with MS2 coat protein.
Ans. 156

Qu. Kindly state the measured apparent KD of MS2 coat protein obtained for GGUGGACAUGAGGAUCACCCAUGUGAGGAUAUCGGCUGGCUAGCGGCUGACGGCUGCUCGAGAAGGCGCAUUGU [Exclusion 1 V85] (puzzle: Exclusion 1) with MS2 coat protein.
Ans. 50.5

Qu. Kindly state the measured apparent KD of MS2 coat protein obtained for AACAACUCUGUGAGGAUAUGCAAUUGUUGAUCAAGGCAGAAGGCACAUGAGGAUCACCCAUGUUCCUACAAGGG [Reatanan] (puzzle: Brourd's mod of Exclusion 4) with MS2 coat protein.
Ans. 46.5

Qu. Kindly state the measured apparent KD of MS2 coat protein obtained for GCCGAGUGAGGAUAUACAUGAGGAUCACCCAUGUAAACACGAAAGCAAGUGUCCCUCAGUAGAAGGCGCCAGGA [Xeanonis] (puzzle: Exclusion 3) with MS2 coat protein.
Ans. 13.9

Qu. Kindly state the measured apparent KD of MS2 coat protein obtained for UUUGUGUCAGGAUAUGAGUCGUAGAACAAUAGUACUACGUCUCAGAAGGGACAUGAGGAUCACCCAUGUGCCUC [Fiskers Ex 4 Super Stable 44 mod 27] (puzzle: Exclusion 4) with MS2 coat protein.
Ans. 34.9

Qu. Kindly state the measured apparent KD of MS2 coat protein obtained for AGUACUAACACGUAAGUGUUAGUACAAUAAGCUUGUGAAACAUGAGGAUCACCCAUGUCCUCAUAAGCUCGUCUUAU [salish99_TOv2_r3_025] (puzzle: Sensor v3, turn-off variant 2) with MS2 coat protein.
Ans. 659

Qu. Kindly state the measured apparent KD of MS2 coat protein obtained for UUGGUUAUCCAUGGAAGUAACAUGAGGAUCACCCAUGUAUGUCUAGUUUUUUGUUCGUCAUAGGCCUUUUGUUUGGA [JR_SV3TOV1_Sub022] (puzzle: Sensor v3, turn-off variant 1) with MS2 coat protein.
Ans. 27.9
